Molecular target: T1, G9a and GLP (Homo sapiens, UniProt Q96KQ7+Q9H9B1)
T1 sequence (Q96KQ7 2-1210 limits assumed): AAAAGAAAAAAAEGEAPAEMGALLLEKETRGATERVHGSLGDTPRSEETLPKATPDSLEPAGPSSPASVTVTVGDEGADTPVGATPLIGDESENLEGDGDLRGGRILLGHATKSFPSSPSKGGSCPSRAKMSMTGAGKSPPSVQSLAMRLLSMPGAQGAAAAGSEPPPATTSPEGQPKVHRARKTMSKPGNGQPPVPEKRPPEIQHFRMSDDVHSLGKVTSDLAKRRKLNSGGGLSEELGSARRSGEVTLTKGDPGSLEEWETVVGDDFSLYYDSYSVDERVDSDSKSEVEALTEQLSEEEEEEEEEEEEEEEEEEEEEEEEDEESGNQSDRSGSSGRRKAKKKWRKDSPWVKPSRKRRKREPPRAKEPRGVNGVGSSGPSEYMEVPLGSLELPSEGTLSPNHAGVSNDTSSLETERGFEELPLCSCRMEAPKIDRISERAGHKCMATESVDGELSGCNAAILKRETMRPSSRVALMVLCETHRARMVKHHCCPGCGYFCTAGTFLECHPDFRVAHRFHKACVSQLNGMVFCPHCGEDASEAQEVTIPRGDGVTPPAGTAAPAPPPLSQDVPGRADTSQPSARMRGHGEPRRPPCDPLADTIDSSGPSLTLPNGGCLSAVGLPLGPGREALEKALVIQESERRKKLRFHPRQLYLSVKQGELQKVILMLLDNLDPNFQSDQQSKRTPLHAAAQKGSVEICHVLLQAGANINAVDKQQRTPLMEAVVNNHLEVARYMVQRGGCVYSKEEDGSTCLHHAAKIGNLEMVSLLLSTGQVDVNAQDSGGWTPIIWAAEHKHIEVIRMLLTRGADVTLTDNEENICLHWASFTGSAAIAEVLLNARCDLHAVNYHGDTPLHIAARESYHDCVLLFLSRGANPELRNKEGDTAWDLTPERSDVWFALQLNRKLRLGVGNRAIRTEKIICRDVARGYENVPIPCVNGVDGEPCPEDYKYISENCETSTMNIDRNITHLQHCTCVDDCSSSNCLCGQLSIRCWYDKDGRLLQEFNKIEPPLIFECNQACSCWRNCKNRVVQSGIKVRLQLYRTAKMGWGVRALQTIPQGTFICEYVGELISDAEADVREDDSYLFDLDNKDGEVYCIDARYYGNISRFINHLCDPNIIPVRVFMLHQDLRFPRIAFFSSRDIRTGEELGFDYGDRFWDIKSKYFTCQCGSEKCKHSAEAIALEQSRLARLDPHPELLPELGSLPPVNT
T1 sequence (Q9H9B1 2-1298 limits assumed): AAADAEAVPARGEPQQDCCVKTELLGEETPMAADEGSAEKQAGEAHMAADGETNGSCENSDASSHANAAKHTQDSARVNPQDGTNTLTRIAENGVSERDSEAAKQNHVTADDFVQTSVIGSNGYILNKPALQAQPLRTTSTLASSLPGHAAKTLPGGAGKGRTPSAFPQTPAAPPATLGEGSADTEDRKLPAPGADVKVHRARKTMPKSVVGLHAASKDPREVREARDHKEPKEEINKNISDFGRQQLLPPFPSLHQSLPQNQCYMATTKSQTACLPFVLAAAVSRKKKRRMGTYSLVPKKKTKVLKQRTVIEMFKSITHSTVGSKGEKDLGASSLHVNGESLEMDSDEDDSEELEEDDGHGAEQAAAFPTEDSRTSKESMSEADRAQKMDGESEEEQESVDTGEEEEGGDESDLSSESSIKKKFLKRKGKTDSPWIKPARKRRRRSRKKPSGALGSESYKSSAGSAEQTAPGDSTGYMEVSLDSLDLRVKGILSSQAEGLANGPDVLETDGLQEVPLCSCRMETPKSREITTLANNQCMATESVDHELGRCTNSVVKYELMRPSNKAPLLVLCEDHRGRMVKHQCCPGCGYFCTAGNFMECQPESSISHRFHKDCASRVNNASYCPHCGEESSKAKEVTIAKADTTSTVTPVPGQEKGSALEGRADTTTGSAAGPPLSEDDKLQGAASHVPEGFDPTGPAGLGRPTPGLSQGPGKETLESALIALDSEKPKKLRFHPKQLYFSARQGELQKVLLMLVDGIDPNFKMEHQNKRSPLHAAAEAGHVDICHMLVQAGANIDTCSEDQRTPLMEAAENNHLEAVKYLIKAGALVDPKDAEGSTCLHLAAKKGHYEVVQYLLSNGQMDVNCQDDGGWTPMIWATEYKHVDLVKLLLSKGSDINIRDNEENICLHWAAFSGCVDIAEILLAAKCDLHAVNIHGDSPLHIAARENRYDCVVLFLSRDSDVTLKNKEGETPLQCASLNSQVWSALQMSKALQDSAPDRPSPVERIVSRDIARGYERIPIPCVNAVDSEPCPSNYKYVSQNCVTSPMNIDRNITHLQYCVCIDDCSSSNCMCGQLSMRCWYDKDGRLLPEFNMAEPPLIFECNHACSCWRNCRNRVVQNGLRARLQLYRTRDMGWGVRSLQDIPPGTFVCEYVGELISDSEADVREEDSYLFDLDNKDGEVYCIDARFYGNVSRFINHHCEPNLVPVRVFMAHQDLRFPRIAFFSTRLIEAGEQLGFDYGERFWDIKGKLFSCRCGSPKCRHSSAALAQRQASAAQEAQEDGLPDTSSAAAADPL
Assay: Triple SILAC pull-down after UNC0638 treatment of 293T cells, DMSO/UNC0638 ratio of protein captured by 3×MBT;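 note: mass spectrometry (Q-Exactive) SILAC quantitation, DMSO/UNC0638 ratio computed after subtracting 3×MBTD355N mutant pull-down background, only proteins with at least twofold 3×MBT over mutant signal considered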
Assay type: cell-based
Design: endogenous in cells; host or cells: HEK 293T
Conditions: SILAC ratio DMSO/UNC0638 of protein pulled down with 3xMBT; UNC0638 in heavy SILAC media
recorded.endpoint: Relative to UNC0638 UNC Heavy (log base 2)
All answers are understood in log base 2, so give the number only.

Example results:
For this molecule ( HNRNPA0 (protein, UniProt Q13151 1-305, looked up) Heterogeneous nuclear …: MENSQLCKLFIGGLNVQTSESGLRGHFEAFGTLTDCVVVVNPQTKRSRCFGFVTYSNVEEADAAMAASPHAVDGNTVELKRAVSREDSARPGAHAKVKKLFVGGLKGDVAEGDLIEHFSQFGTVEKAEIIADKQSGKKRGFGFVYFQNHDAADKAAVVKFHPIQGHRVEVKKAVPKEDIYSGGGGGGSRSSRGGRGGRGRGGGRDQNGLSKGGGGGYNSYGGYGGGGGGGYNAYGGGGGGSSYGGSDYGNGFGGFGSYSQHQSSYGPMKSGGGGGGGGSSWGGRSNSGPYRGGYGGGGGYGGSSF ), measured Relative to UNC0638 UNC Heavy is 0.02

For this molecule ( DSTN (protein, UniProt P60981 2-165, looked up) Destrin: ASGVQVADEVCRIFYDMKVRKCSTPEEIKKRKKAVIFCLSADKKCIIVEEGKEILVGDVGVTITDPFKHFVGMLPEKDCRYALYDASFETKESRKEELMFFLWAPELAPLKSKMIYASSKDAIKKKFQGIKHECQANGPEDLNRACIAEKLGGSLIVAFEGCPV ), measured Relative to UNC0638 UNC Heavy is 0.24

For this molecule ( HNRNPH3 (protein, UniProt P31942 1-346, looked up) Heterogeneous nuclear …: MDWVMKHNGPNDASDGTVRLRGLPFGCSKEEIVQFFQGLEIVPNGITLTMDYQGRSTGEAFVQFASKEIAENALGKHKERIGHRYIEIFRSSRSEIKGFYDPPRRLLGQRPGPYDRPIGGRGGYYGAGRGSMYDRMRRGGDGYDGGYGGFDDYGGYNNYGYGNDGFDDRMRDGRGMGGHGYGGAGDASSGFHGGHFVHMRGLPFRATENDIANFFSPLNPIRVHIDIGADGRATGEADVEFVTHEDAVAAMSKDKNNMQHRYIELFLNSTPGGGSGMGGSGMGGYGRDGMDNQGGYGSVGRMGMGNNYSGGYGTPDGLGGYGRGGGGSGGYYGQGGMSGGGWRGMY ), measured Relative to UNC0638 UNC Heavy is 0.28

// moving on: another record for Relative to UNC0638 UNC Heavy
For this molecule ( DCAF7 (protein, UniProt P61962 1-342, looked up) DDB1- and CUL4-associated …: MSLHGKRKEIYKYEAPWTVYAMNWSVRPDKRFRLALGSFVEEYNNKVQLVGLDEESSEFICRNTFDHPYPTTKLMWIPDTKGVYPDLLATSGDYLRVWRVGETETRLECLLNNNKNSDFCAPLTSFDWNEVDPYLLGTSSIDTTCTIWGLETGQVLGRVNLVSGHVKTQLIAHDKEVYDIAFSRAGGGRDMFASVGADGSVRMFDLRHLEHSTIIYEDPQHHPLLRLCWNKQDPNYLATMAMDGMEVVILDVRVPCTPVARLNNHRACVNGIAWAPHSSCHICTAADDHQALIWDIQQMPRAIEDPILAYTAEGEINNVQWASTQPDWIAICYNNCLEILRV ), measured Relative to UNC0638 UNC Heavy is 0.69
